Please provide measured Fbg for the entries that follow.
Species: Rattus norvegicus
Measurement Description: Open TG-GATES - Regimen: Single
Assay type: toxicity, organism-based, Sprague-Dawley
Set-up: regimen Single, gender Male, age 6 weeks
Assay Setup: in vivo, po, 0 mg/kg, 6 h, tissue Blood, route gavage, dose level Control
Please respond with the number in mg/dL and leave the unit unwritten.

May I ask what Fbg has been recorded for CN(C)CCCN1c2ccccc2CCc2ccccc21 ?
326

I would be grateful if you could share the reported Fbg for CCOC(=O)CCC(=O)O[C@H]1[C@H](O[C@@H]2[C@@H](C)[C@H](O[C@H]3C[C@@](C)(OC)[C@@H](O)[C@H](C)O3)[C@@H](C)C(=O)O[C@H](CC)[C@@](C)(O)[C@H](O)[C@@H](C)C(=O)[C@H](C)C[C@@]2(C)O)O[C@H](C)C[C@@H]1N(C)C [ERYTHROMYCIN ETHYLSUCCINATE] .
321.8

Name the recorded Fbg for O=C(CCCN1CCC(O)(c2ccc(Cl)cc2)CC1)c1ccc(F)cc1 .
206.4

###

Organism: Rattus norvegicus
Measurement Description: Open TG-GATES - Regimen: Single
Assay type: toxicity, organism-based, Sprague-Dawley
Design: regimen Single, gender Male, age 6 weeks
Assay Setup: in vivo, po, 30 mg/kg, 9 h, tissue Blood, route gavage, dose level Middle
What Ret was measured for each of the following?
The reply should contain only the number, in %.

Any idea what Ret was measured for CC1=C(/C=C/C(C)=C/C=C/C(C)=C/CO)C(C)(C)CCC1 ?
7.7

For the compound CN(C)CCCN1c2ccccc2CCc2ccc(Cl)cc21 , what Ret is on record?
7.7

// returns reported Ret for input CN(C)CCN(Cc1cccs1)c1ccccn1
7.7

Please report the recorded Ret for CN(C)CCCN1c2ccccc2CCc2ccccc21 .
7.8

###

Species: Rattus norvegicus
Measurement Description: Open TG-GATES - Regimen: Daily Repeat
Type: toxicity, organism-based, Sprague-Dawley
Parameters: regimen Daily Repeat, gender Male, age 6 weeks
Assay Setup: in vivo, po, 300 mg/kg, […], tissue Plasma, route gavage, dose level Middle, time 28 day
Quick rule for you: AST at 60 IU/L or higher means 1, lower means 0.

Decide: is the reported value of AST for NC(N)=Nc1nc(CSCCC(N)=NS(N)(=O)=O)cs1 [FAMOTIDINE] equal to or greater than 60 IU/L?
1

Does the compound COc1ccc2[nH]c([S+]([O-])Cc3ncc(C)c(OC)c3C)nc2c1 (stereo not given) [OMEPRAZOLE] have recorded AST that is 60 IU/L or more?
0

Quick check, AST >= 60 IU/L? CCOc1ccc(NC(=O)CC(C)O)cc1 (stereo not given) [BUCETIN]
1

hey, is AST for this one >= 60 IU/L? COC1=CC(=O)C[C@@H](C)[C@]12Oc1c(Cl)c(OC)cc(OC)c1C2=O [GRISEOFULVIN]
0

###

Organism: Rattus norvegicus
Measurement Description: Open TG-GATES - Regimen: Daily Repeat
Format: toxicity, organism-based, Sprague-Dawley
Design: regimen Daily Repeat, gender Male, age 6 weeks
Assay Setup: in vivo, po, 100 mg/kg, […], tissue Blood, route gavage, dose level Low, time 7 day
Metric: Neu (%)
Report the figure in % without appending any unit label.

Name the reported Neu value associated with the compound CCOC(=O)CCC(=O)O[C@H]1[C@H](O[C@@H]2[C@@H](C)[C@H](O[C@H]3C[C@@](C)(OC)[C@@H](O)[C@H](C)O3)[C@@H](C)C(=O)O[C@H](CC)[C@@](C)(O)[C@H](O)[C@@H](C)C(=O)[C@H](C)C[C@@]2(C)O)O[C@H](C)C[C@@H]1N(C)C [ERYTHROMYCIN ETHYLSUCCINATE]
11.4

Could you share which Neu value was measured for NC(N)=Nc1nc(CSCCC(N)=NS(N)(=O)=O)cs1 ?
16.4

Record request: Neu value, item COC1=CC(=O)C[C@@H](C)[C@]12Oc1c(Cl)c(OC)cc(OC)c1C2=O
16

Look at this compound and give its reported Neu. CCOc1ccc(NC(=O)CC(C)O)cc1 (stereo not given)
17.6

Which measured Neu value corresponds to COc1ccc2[nH]c([S+]([O-])Cc3ncc(C)c(OC)c3C)nc2c1 (stereo not given) ?
13.2

###

Record form. Attribute: Bas. Fill in for each entry.
Organism: Rattus norvegicus
Measurement Description: Open TG-GATES - Regimen: Single
Assay type: toxicity, organism-based, Sprague-Dawley
Design: regimen Single, gender Male, age 6 weeks
Assay Setup: in vivo, po, 10 mg/kg, 9 h, tissue Blood, route gavage, dose level Low
The reply should contain only the number, in %.

// Bas lookup, key: CC(C)OC(=O)C(C)(C)Oc1ccc(C(=O)c2ccc(Cl)cc2)cc1 [FENOFIBRATE]
0

Can you look up the measured Bas of CN(C)CCCN1c2ccccc2CCc2ccc(Cl)cc21 for me?
0

What value of Bas has been reported for the following molecule? CN(C)CCN(Cc1cccs1)c1ccccn1
0

For CN(C)CCCN1c2ccccc2CCc2ccccc21 , what is its reported Bas?
0.2

Endpoint output: Bas of CC1=C(/C=C/C(C)=C/C=C/C(C)=C/CO)C(C)(C)CCC1 . Value?
0

###

Please go through the items and note down their MCH.
Species on record: Rattus norvegicus
Measurement Description: Open TG-GATES - Regimen: Daily Repeat
Format: toxicity, organism-based, Sprague-Dawley
Design: regimen Daily Repeat, gender Male, age 6 weeks
Assay Setup: in vivo, po, 100 mg/kg, 72 h, tissue Blood, route gavage, dose level Low, time 3 day
Answer in pg, number only, no unit symbol.

What value of measured MCH is listed for COC1=CC(=O)C[C@@H](C)[C@]12Oc1c(Cl)c(OC)cc(OC)c1C2=O [GRISEOFULVIN] ?
22.1

What MCH value was documented for this molecule, CCOc1ccc(NC(=O)CC(C)O)cc1 (stereo not given) [BUCETIN] ?
21.2

Consider the molecule shown here: CCOC(=O)CCC(=O)O[C@H]1[C@H](O[C@@H]2[C@@H](C)[C@H](O[C@H]3C[C@@](C)(OC)[C@@H](O)[C@H](C)O3)[C@@H](C)C(=O)O[C@H](CC)[C@@](C)(O)[C@H](O)[C@@H](C)C(=O)[C@H](C)C[C@@]2(C)O)O[C@H](C)C[C@@H]1N(C)C [ERYTHROMYCIN ETHYLSUCCINATE] What is its recorded MCH?
20.7

So what's the measured MCH for this one? COc1ccc2[nH]c([S+]([O-])Cc3ncc(C)c(OC)c3C)nc2c1 (stereo not given) [OMEPRAZOLE]
21

Quick check: MCH of NC(N)=Nc1nc(CSCCC(N)=NS(N)(=O)=O)cs1 [FAMOTIDINE] ?
22.1

###

I'd appreciate it if you could supply Ht values for the items below.
Organism: Rattus norvegicus
Measurement Description: Open TG-GATES - Regimen: Single
Assay type: toxicity, organism-based, Sprague-Dawley
Set-up: regimen Single, gender Male, age 6 weeks
Assay Setup: in vivo, po, 10 mg/kg, 24 h, tissue Blood, route gavage, dose level Low
The figure you give is taken to be in %; do not add the unit.

For CN(C)CCCN1c2ccccc2CCc2ccc(Cl)cc21 , what is its reported Ht?
42.5

Param item = CN(C)CCN(Cc1cccs1)c1ccccn1 ; retrieve measured Ht.
38.4

Reported Ht, compound CN(C)CCCN1c2ccccc2CCc2ccccc21 : ____
40.6

Need Ht, item CC(C)OC(=O)C(C)(C)Oc1ccc(C(=O)c2ccc(Cl)cc2)cc1 [FENOFIBRATE]
38.6

// Ht lookup, key: CC1=C(/C=C/C(C)=C/C=C/C(C)=C/CO)C(C)(C)CCC1
38.4

###

Species: Rattus norvegicus
Measurement Description: Open TG-GATES - Regimen: Single
Assay type: toxicity, organism-based, Sprague-Dawley
Parameters: regimen Single, gender Male, age 6 weeks
Assay Setup: in vivo, po, 10 mg/kg, 24 h, tissue Blood, route gavage, dose level Low
Metric: Fbg (mg/dL)
Return type: number; implicit unit mg/dL.

Please look up its Fbg: CC(C)OC(=O)C(C)(C)Oc1ccc(C(=O)c2ccc(Cl)cc2)cc1 [FENOFIBRATE]
270

Find the recorded Fbg belonging to CN(C)CCCN1c2ccccc2CCc2ccc(Cl)cc21 and report it.
249

Which Fbg reading was recorded for the compound CN(C)CCCN1c2ccccc2CCc2ccccc21 ?
254

I have this compound here, CN(C)CCN(Cc1cccs1)c1ccccn1 , and I need its recorded Fbg.
282.8

I have this compound here, CC1=C(/C=C/C(C)=C/C=C/C(C)=C/CO)C(C)(C)CCC1 , and I need its recorded Fbg.
273.4

###

Species on record: Rattus norvegicus
Measurement Description: Open TG-GATES - Regimen: Single
Format: toxicity, organism-based, Sprague-Dawley
Design: regimen Single, gender Male, age 6 weeks
Assay Setup: in vivo, po, 0 mg/kg, 9 h, tissue Blood, route gavage, dose level Control
I'd be grateful if you could share measured Eos for these entries.
Output spec: scalar in %, unitless text.

Entry NC(N)=Nc1nc(CSCCC(N)=NS(N)(=O)=O)cs1 [FAMOTIDINE] : reported Eos = ?
1

Look at this compound and give its reported Eos. CN(C)CCCN1c2ccccc2CCc2ccc(Cl)cc21 [CLOMIPRAMINE]
1

Which Eos is listed for COC1=CC(=O)C[C@@H](C)[C@]12Oc1c(Cl)c(OC)cc(OC)c1C2=O [GRISEOFULVIN] ?
1

// Eos lookup, key: CC1=C(/C=C/C(C)=C/C=C/C(C)=C/CO)C(C)(C)CCC1 [RETINOL]
0.6

Form field: reported Eos of CN1C(=O)CN=C(c2ccccc2)c2cc(Cl)ccc21 [DIAZEPAM]
0.8

Quick one: Eos for CC/C(=C(\c1ccccc1)c1ccc(OCCN(C)C)cc1)c1ccccc1 [TAMOXIFEN] ?
1

# get_value(readout='Eos', item= CN(C)CCCN1c2ccccc2CCc2ccccc21 [IMIPRAMINE] )
1

Which Eos is reported for this compound? CN(C)CCN(Cc1cccs1)c1ccccn1
0.8

What Eos value was documented for this compound, CC(C)OC(=O)C(C)(C)Oc1ccc(C(=O)c2ccc(Cl)cc2)cc1 [FENOFIBRATE] ?
1

What does the data say about its Eos? Entry: COc1ccc2[nH]c([S+]([O-])Cc3ncc(C)c(OC)c3C)nc2c1 (stereo not drawn) [OMEPRAZOLE]
1

Sample C[C@@H]1C[C@H]2[C@@H]3CCC4=CC(=O)C=C[C@]4(C)[C@@]3(F)[C@@H](O)C[C@]2(C)[C@@]1(O)C(=O)CO [DEXAMETHASONE] — what was its Eos?
1

Need Eos, item COc1cc2c(c(OC)c1OC)-c1ccc(OC)c(=O)cc1[C@@H](NC(C)=O)CC2 [COLCHICINE]
0.8

Dear colleague, I am looking for the recorded Eos of the following compound: O=C(CCCN1CCC(O)(c2ccc(Cl)cc2)CC1)c1ccc(F)cc1 [HALOPERIDOL]
0.8

For the compound shown here, CCOC(=O)CCC(=O)O[C@H]1[C@H](O[C@@H]2[C@@H](C)[C@H](O[C@H]3C[C@@](C)(OC)[C@@H](O)[C@H](C)O3)[C@@H](C)C(=O)O[C@H](CC)[C@@](C)(O)[C@H](O)[C@@H](C)C(=O)[C@H](C)C[C@@]2(C)O)O[C@H](C)C[C@@H]1N(C)C [ERYTHROMYCIN ETHYLSUCCINATE] , give the reported Eos.
0.6

Which Eos value is on record for NNC(=O)c1ccncc1 [ISONIAZID] ?
0.8

Entry CCCNC(=O)NS(=O)(=O)c1ccc(Cl)cc1 [CHLORPROPAMIDE] has what Eos?
0.8

Bench note: what Eos did CCOc1ccc(NC(=O)CC(C)O)cc1 (stereo not drawn) [BUCETIN] show?
1

Need Eos of Cc1ccc(C)c(OCCCC(C)(C)C(=O)O)c1 [GEMFIBROZIL] , thanks.
1
